Below, each entry is listed with its recorded Fractional motility.
Test system: S. mansoni adult worms
procedure-details: Motility assay on adult parasites (pixel displacement, relative to DMSO control)
Type: cell-based, Schistosoma mansoni
test-parameters: secondary screen, 10 μM, D5, Female adult worms
Reply: number alone, nothing else.

Please review the entries below; each comes with its answer.
CC(C)(C)c1cc(NC(=O)Nc2ccc(-c3cn4c(n3)sc3cc(OCCN5CCOCC5)ccc34)cc2)no1 :: -0.59
Fc1ccc([C@@H]2CCNC[C@H]2COc2ccc3c(c2)OCO3)cc1 :: -0.42
O=C(NC(NC(=S)Nc1ccc(F)c([N+](=O)[O-])c1)C(Cl)(Cl)Cl)C(c1ccccc1)c1ccccc1 (centres unmarked) :: -0.83
Cc1ccc(S(=O)(=O)c2ccc([N+](=O)[O-])o2)cc1 :: -0.95

// moving on: another record for Fractional motility
[in] Form field: reported Fractional motility of Cc1c(C(=O)NN2CCCCC2)nn(-c2ccc(Cl)cc2Cl)c1-c1ccc(Cl)cc1
[out] -0.41
